The reported numbers originate from ChEMBL document CHEMBL1961873.

Entries and their inhibition
Target: Protein-tyrosine kinase 6 (Homo sapiens) (UniProt Q13882)
Sequence (Q13882 whole entry, looked up): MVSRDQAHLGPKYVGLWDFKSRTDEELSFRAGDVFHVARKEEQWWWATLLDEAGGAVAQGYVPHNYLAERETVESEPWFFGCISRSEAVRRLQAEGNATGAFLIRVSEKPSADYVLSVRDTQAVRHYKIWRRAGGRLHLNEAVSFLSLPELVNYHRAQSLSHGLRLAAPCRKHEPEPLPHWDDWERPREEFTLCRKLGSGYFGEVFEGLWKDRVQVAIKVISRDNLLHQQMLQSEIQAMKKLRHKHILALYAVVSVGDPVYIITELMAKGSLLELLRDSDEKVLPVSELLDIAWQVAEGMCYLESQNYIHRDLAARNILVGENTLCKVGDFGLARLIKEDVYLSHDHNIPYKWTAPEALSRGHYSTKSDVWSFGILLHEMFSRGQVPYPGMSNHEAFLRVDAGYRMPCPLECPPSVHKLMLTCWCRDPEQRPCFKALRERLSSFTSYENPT
Conditions: at 0.1 µM
Description: GSK_PKIS: BRK mean inhibition at 0.1 uM [Nanosyn]
State just the number; it will be interpreted in %.

Some entries whose results are on file:
>  <Smiles str>
FC(F)(F)CNc1nccc(-c2cnn3ncccc23)n1

>  <Assay target>
Protein-tyrosine kinase 6 (Homo sapiens) (UniProt Q13882)

>  <Observed result>
-1.25

$$$$
>  <Smiles str>
COc1ccc2ncn(-c3cc(O[C@H](C)c4ccccc4C(F)(F)F)c(C(N)=O)s3)c2c1

>  <Assay target>
Protein-tyrosine kinase 6 (Homo sapiens) (UniProt Q13882)

>  <Observed result>
-0.2

$$$$
>  <Smiles str>
O=C1Nc2ccccc2/C1=C1\CCc2cc(O)ccc21

>  <Assay target>
Protein-tyrosine kinase 6 (Homo sapiens) (UniProt Q13882)

>  <Observed result>
5

$$$$
>  <Smiles str>
OCCCNc1nccc(-c2c(-c3ccc(F)cc3)nn3cc(C(F)(F)F)ccc23)n1

>  <Assay target>
Protein-tyrosine kinase 6 (Homo sapiens) (UniProt Q13882)

>  <Observed result>
1.91

$$$$
>  <Smiles str>
CS(=O)(=O)Nc1ccc(-c2ccc3c(NC(=O)C4CC4)n[nH]c3c2)cc1

>  <Assay target>
Protein-tyrosine kinase 6 (Homo sapiens) (UniProt Q13882)

>  <Observed result>
1.77

$$$$
>  <Smiles str>
COC(=O)Nc1nc2cc(Oc3ccc(NC(=O)Nc4ccccc4)cc3)ccc2[nH]1

>  <Assay target>
Protein-tyrosine kinase 6 (Homo sapiens) (UniProt Q13882)

>  <Observed result>
1.45

$$$$
>  <Smiles str>
Cn1c(-c2nonc2N)nc2cnccc21

>  <Assay target>
Protein-tyrosine kinase 6 (Homo sapiens) (UniProt Q13882)

>  <Observed result>
4.32

$$$$
>  <Smiles str>
COc1c(C(N)=O)cc(-c2ccc(Cl)cc2)cc1-c1ccc(S(N)(=O)=O)cc1

>  <Assay target>
Protein-tyrosine kinase 6 (Homo sapiens) (UniProt Q13882)

>  <Observed result>
3.21

$$$$

# return recorded inhibition for input `COc1cc(Nc2ncc(-c3ccccc3)o2)cc(OC)c1`
0.81

For the molecule `NS(=O)(=O)c1ccc(N/N=C2\C(=O)Nc3ccc(C(=O)NCc4ccncc4)cc32)cc1` , give its measured inhibition value.
1.97

Find the measured inhibition of `CCCNc1cccc(-n2ncc3c(N/N=C/c4ccncc4)ncnc32)c1` and report it.
8.53

Consider the molecule `O=C(O[C@H]1CN[C@H](C#Cc2cc3ncnc(Nc4ccc5c(cnn5Cc5ccccc5)c4)c3s2)C1)N1CCOCC1` and give its recorded inhibition.
1.71
